Target: 5'-AMP-activated protein kinase catalytic subunit alpha-2 (Homo sapiens)
Conditions: at 1 µM
Description: GSK_PKIS: AMPKA2 (A2B1G1) mean inhibition at 1 uM [Nanosyn]
RECORDED_ENDPOINT: inhibition (%)
State the answer as a number, implicitly in %.

1) COc1cccc(-n2ncc3c(N/N=C/c4ccc(S(C)(=O)=O)cc4)ncnc32)c1 | 4.43
2) C[C@@H](Oc1cc(-n2cnc3ccc(OC[C@@H](O)CO)cc32)sc1C(N)=O)c1ccccc1Cl | 2.08

Prompt: What measured inhibition goes with `CCn1c(-c2nonc2N)nc2c(C#CC(C)(C)O)nc(OCCNC)cc21` ?
Response: 3.94

Prompt: Request: `COC(=O)c1cncc(/C=C/c2c(C)cc(O)cc2C)c1`
Response: 2.21

Prompt: Request: `COc1cc(/C=N/Nc2ncnc3c2cnn3C(C)C)ccc1O`
Response: 4.32

Prompt: Request: `CS(=O)(=O)CCNCc1nc(-c2ccc3ncnc(Nc4ccc(OCc5cccc(C(F)(F)F)c5)cc4)c3c2)cs1`
Response: 2.15

Prompt: Request: `Cc1ccc2c(c1)/C(=N/Nc1ccc(S(N)(=O)=O)cc1)C(=O)N2`
Response: 12.3

Prompt: Request: `Cc1ccc2c(-c3ccnc(Nc4ccc5c(c4)OCCO5)n3)c(-c3ccc(C(F)(F)F)cc3)nn2n1`
Response: 1.71

Prompt: Request: `COc1cc2ncn(-c3cc(OCc4ccccc4S(C)(=O)=O)c(C#N)s3)c2cc1OC`
Response: 31.2

----------
Below, each entry is listed alongside its reported inhibition.
System: Mast/stem cell growth factor receptor Kit (Homo sapiens), P10721 [D816V]
Sequence (P10721 whole entry D816V): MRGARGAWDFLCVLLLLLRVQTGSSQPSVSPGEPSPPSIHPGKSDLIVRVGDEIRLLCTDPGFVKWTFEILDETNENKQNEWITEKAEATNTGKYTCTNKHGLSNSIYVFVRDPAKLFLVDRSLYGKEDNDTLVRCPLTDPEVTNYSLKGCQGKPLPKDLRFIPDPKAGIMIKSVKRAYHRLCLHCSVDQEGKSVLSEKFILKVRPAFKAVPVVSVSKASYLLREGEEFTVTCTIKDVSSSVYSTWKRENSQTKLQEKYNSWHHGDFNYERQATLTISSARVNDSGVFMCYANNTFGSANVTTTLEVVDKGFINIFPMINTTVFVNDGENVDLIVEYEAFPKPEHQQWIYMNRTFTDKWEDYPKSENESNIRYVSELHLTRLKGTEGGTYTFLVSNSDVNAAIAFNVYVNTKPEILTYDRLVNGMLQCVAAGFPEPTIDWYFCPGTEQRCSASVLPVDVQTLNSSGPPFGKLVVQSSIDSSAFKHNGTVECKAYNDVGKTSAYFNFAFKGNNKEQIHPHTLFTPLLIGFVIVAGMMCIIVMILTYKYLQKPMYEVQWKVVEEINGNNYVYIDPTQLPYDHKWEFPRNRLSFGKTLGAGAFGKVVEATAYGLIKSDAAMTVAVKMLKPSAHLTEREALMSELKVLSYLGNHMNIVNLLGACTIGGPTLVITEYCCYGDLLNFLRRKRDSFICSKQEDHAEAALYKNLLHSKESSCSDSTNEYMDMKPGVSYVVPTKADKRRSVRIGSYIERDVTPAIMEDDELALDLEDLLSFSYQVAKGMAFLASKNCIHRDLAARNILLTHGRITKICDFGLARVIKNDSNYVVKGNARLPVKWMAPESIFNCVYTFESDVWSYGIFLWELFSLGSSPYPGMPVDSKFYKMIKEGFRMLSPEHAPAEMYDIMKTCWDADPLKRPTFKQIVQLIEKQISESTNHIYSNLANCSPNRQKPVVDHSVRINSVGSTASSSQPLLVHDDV
Conditions: at 0.1 µM
State the answer as a number, implicitly in %.

Some compounds with recorded inhibition:
1. Cc1ccc(Nc2ccnc(Nc3cccc(C(N)=O)c3)n2)cc1O | 14.9
2. Cc1ccc2c(-c3ccnc(Nc4ccc5c(c4)OCCO5)n3)c(-c3ccc(C(F)(F)F)cc3)nn2n1 | -1.16

Prompt: What measured inhibition goes with `Cc1nc(-c2ccccc2)n2nc(NCCCN3CCOCC3)ncc12` ?
Response: 1.35

Prompt: Request: `COC(=O)Nc1nc2cc(Oc3ccc(NC(=O)Nc4cccc(Br)c4)cc3)ccc2[nH]1`
Response: 2.97

Prompt: Request: `NS(=O)(=O)c1ccc(-c2cc3ccncc3cc2OCc2ccccc2)cc1`
Response: 2.17

Prompt: Request: `O=C1Nc2ccc(-c3cccnc3)cc2C1=Cc1cc(Br)c(O)c(Br)c1`
Response: 3.44

Prompt: Request: `Cc1cc(Cl)cc2c1NC(=O)C2=NNc1ccc(S(N)(=O)=O)cc1`
Response: 4.18

Prompt: Request: `O=C1Nc2ccccc2/C1=C/Nc1ccc2[nH]c(=O)[nH]c2c1`
Response: 3.67

Prompt: Request: CCCN1CCCC(c2ccc(Nc3nc(Nc4cc(F)ccc4C(N)=O)c4cc[nH]c4n3)c(OC)c2)C1 (stereo unspecified)
Response: 4.45

Prompt: Request: `COc1cccc(-n2ncc3c(N/N=C/c4ccc(S(C)(=O)=O)cc4)ncnc32)c1`
Response: 1.61

Prompt: Request: `CCS(=O)(=O)c1ccc(OC)c(Nc2ncc(-c3cccc(OC)c3)o2)c1`
Response: 0.77

Prompt: Request: `Nc1nccc(-c2c(-c3ccc(F)cc3)ncn2CCCN2CCOCC2)n1`
Response: 5.23

----------
Target: Serine/threonine-protein kinase Chk2 (Homo sapiens);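 note: reported value is the mean inhibition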
Conditions: at 1 µM
Below, each entry is listed alongside its reported inhibition.
State the answer as a number, implicitly in %.

1. CN(C)CCCn1c(-c2nonc2N)nc2cnccc21 | 3.79
2. CC(C)c1ccc2c(c1)NC(=O)/C2=N/Nc1ccc(S(N)(=O)=O)cc1 | 0.01
3. NS(=O)(=O)c1ccc(N/N=C2\C(=O)Nc3ccc(Cl)cc32)cc1 | 0.53

Prompt: What measured inhibition goes with `Cc1cc(Cl)cc2c1NC(=O)C2=NNc1ccc(S(N)(=O)=O)cc1` ?
Response: 2.55

Prompt: Request: `NS(=O)(=O)c1ccc(-c2cc3ccncc3cc2OCc2ccccc2)cc1`
Response: 4.7
